Entries annotated with measured pIC50
System: U937 cells (human monocytic cell line)
EXPERIMENT_SUMMARY: Pam2CSK4-induced TNF-α secretion inhibition in PMA-differentiated U937 cells
Assay type: cell-based
DETAILS: U-937, U937 cells differentiated with PMA, read-out: TNF-α production inhibition grade (IC50)
pIC50: −log10 of the molar value.

Look over these answered cases.
C[C@H](CCC(=O)N1CCN(C)CC1)[C@H]1CC[C@H]2[C@@H]3CC[C@@H]4C[C@H](O)CC[C@]4(C)[C@H]3C[C@H](O)[C@]12C | 6.00 to 6.30
C[C@H](CCC(=O)NC[C@@H](C)S(=O)(=O)O)[C@H]1CC[C@H]2[C@@H]3CC[C@@H]4CC(=O)CC[C@]4(C)[C@H]3CC[C@]12C | ≤ 5.70
CC(C)C[C@H](CS(=O)(=O)O)NC(=O)CC[C@@H](C)[C@H]1CC[C@H]2[C@@H]3CC[C@@H]4C[C@H](O)CC[C@]4(C)[C@H]3C[C@H](O)[C@]12C | > 6.30
CC[C@H]1[C@@H](O)[C@@H]2[C@H](C[C@H](O)[C@]3(C)[C@@H]([C@H](C)CCC(=O)N4CCC(S(=O)(=O)O)CC4)CC[C@@H]23)[C@@]2(C)CC[C@@H](O)C[C@@H]12 | ≤ 5.70

Turning now to a further compound:
For this compound ( CC[C@H]1[C@@H](O)[C@@H]2[C@H](C[C@H](O)[C@]3(C)[C@@H]([C@H](C)CCC(=O)N(CCS(=O)(=O)O)C(C)C)CC[C@@H]23)[C@@]2(C)CC[C@@H](O)C[C@@H]12 ), measured pIC50 is 5.70 to 6.00
